Assay: Cmax in rat at 10 mg/kg, po
Format: ADME, organism-based
Design: dose 10 mg/kg, route oral
Details: in vivo
# key: entry, value: Cmax

Name the recorded Cmax for COc1cc(NC(C(=O)c2c[nH]c3ccccc23)c2ccccc2)cc(OCCO)c1 (single isomer, unassigned; (+)) .
0.706 µM

Next, consider the following molecule.
Name the recorded Cmax for COc1cc(NC(C(=O)c2c[nH]c3ccccc23)c2ccccc2)cc(OC)c1 (single isomer, unassigned; (+)) .
0.088 µM

====

Tested on: Salmonella typhimurium
Experiment: Mutagenicity in Salmonella typhimurium in presence of human liver S9 fraction by Ames test
Assay type: toxicity, organism-based
Conditions: salmonella enterica subsp. enterica serovar typhimurium
VALUE_TYPE: Activity

Previously resolved entries follow.
Name the recorded Activity for COc1cccc(NC(C(=O)c2c[nH]c3ccccc23)c2ccccc2)c1 (stereo not given) .
Non-Toxic

Try this compound next: COc1cc(NC(C(=O)c2c[nH]c3ccccc23)c2ccccc2)cc(OC)c1 (racemic)
Non-Toxic

Try this compound next: COc1cc(NC(C(=O)c2c[nH]c3ccc(F)cc23)c2ccccc2)cc(OC)c1 (stereo not given)
Non-Toxic

Try this compound next: COc1cncc(NC(C(=O)c2c[nH]c3ccccc23)c2ccccc2)c1 (stereo not given)
Non-Toxic

Next, consider the following compound.
Name the recorded Activity for COc1ccc(NC(C(=O)c2c[nH]c3ccccc23)c2ccccc2)cc1OC (stereo not given) .
Non-Toxic
